The reader will find reported minimum viability across doses values listed item by item below.
System: UO-31
Procedure details: minimum viability across doses, drug + dasatinib, relative to DMSO (fraction); higher = less growth inhibition
Study conditions: treatment: drug + dasatinib (fixed dose, not stated); 5 days
When you answer, write just the number.

C[C@H](NC(=O)/C(C#N)=C/c1cccc(Br)n1)c1ccccc1 [WP1066] + Cc1nc(Nc2ncc(C(=O)Nc3c(C)cccc3Cl)s2)cc(N2CCN(CCO)CC2)n1 [dasatinib]	0.00793
CN1CCN(c2cccc(Nc3nc4c(-c5ccc(S(C)(=O)=O)cc5)cccn4n3)c2)CC1 + Cc1nc(Nc2ncc(C(=O)Nc3c(C)cccc3Cl)s2)cc(N2CCN(CCO)CC2)n1 [dasatinib]	0.0195
CC(C)n1nc(-c2cc3cc(O)ccc3[nH]2)c2c(N)ncnc21 [PP242] + Cc1nc(Nc2ncc(C(=O)Nc3c(C)cccc3Cl)s2)cc(N2CCN(CCO)CC2)n1 [dasatinib]	0.00386
S=C(NCc1ccc2c(c1)OCO2)N1CCN(c2ncnc3c2oc2ccccc23)CC1 [Amuvatinib (MP-470)_R2] + Cc1nc(Nc2ncc(C(=O)Nc3c(C)cccc3Cl)s2)cc(N2CCN(CCO)CC2)n1 [dasatinib]	0.0367

Q: Give the measured minimum viability across doses of Cc1cc(Nc2nc(N[C@@H](C)c3ccc(F)cc3)c(C#N)cc2F)n[nH]1 [AZ 960] + Cc1nc(Nc2ncc(C(=O)Nc3c(C)cccc3Cl)s2)cc(N2CCN(CCO)CC2)n1 [dasatinib] .
A: 0.0082

====

System: ACHN
Procedure details: AUC of dose-response viability curve, drug + dasatinib, normalised to DMSO (arbitrary (AUC of normalised viability)); higher = less growth inhibition
Study conditions: treatment: drug + dasatinib (fixed dose, not stated); 5 days
Property name: AUC of dose-response viability curve
Please reply with the number alone, leaving off any unit.

Q: Short answer please: AUC of dose-response viability curve, ACHN, entry Cl.Cl.Fc1cc(-c2cccc3ncc(-c4cnn(C5CCNCC5)c4)nc23)cc(F)c1CN1CCOCC1 [NVP-BSK805] + Cc1nc(Nc2ncc(C(=O)Nc3c(C)cccc3Cl)s2)cc(N2CCN(CCO)CC2)n1 [dasatinib]
A: 1.64

Q: What value of AUC of dose-response viability curve on ACHN does O=c1c(O)c(-c2ccc(O)c(O)c2)oc2cc(O)cc(O)c12 [Quercetin (Sophoretin)] + Cc1nc(Nc2ncc(C(=O)Nc3c(C)cccc3Cl)s2)cc(N2CCN(CCO)CC2)n1 [dasatinib] have?
A: 2.14

====

Tested on: ACHN
Procedure details: AUC of dose-response viability curve, drug + dasatinib, normalised to DMSO (arbitrary (AUC of normalised viability)); higher = less growth inhibition
Study conditions: treatment: drug + dasatinib (fixed dose, not stated); 5 days
Entries and their AUC of dose-response viability curve values follow.
The answer should be a number; do not append a unit.

Q: Need AUC of dose-response viability curve of CC1(C)CCC(c2ccc(Cl)cc2)=C(CN2CCN(c3ccc(C(=O)NS(=O)(=O)c4ccc(N[C@H](CCN5CCOCC5)CSc5ccccc5)c(S(=O)(=O)C(F)(F)F)c4)cc3)CC2)C1 [ABT-263 (Navitoclax)] + Cc1nc(Nc2ncc(C(=O)Nc3c(C)cccc3Cl)s2)cc(N2CCN(CCO)CC2)n1 , thanks.
A: 1.9

Q: Can you look up the measured AUC of dose-response viability curve of CNC(=O)Nc1ccc(-c2nc(N3CC4CCC(C3)O4)c3cnn(C4CCC5(CC4)OCCO5)c3n2)cc1 + Cc1nc(Nc2ncc(C(=O)Nc3c(C)cccc3Cl)s2)cc(N2CCN(CCO)CC2)n1 for me?
A: 0.872

Q: I have this molecule here, CS(=O)(=O)O.N#CC1(c2ccc(NC(=O)c3cccnc3NCc3ccncc3)cc2)CCCC1 [Apatinib (YN968D1)] + Cc1nc(Nc2ncc(C(=O)Nc3c(C)cccc3Cl)s2)cc(N2CCN(CCO)CC2)n1 , and I need its recorded AUC of dose-response viability curve.
A: 2.18

Q: What value of AUC of dose-response viability curve has been recorded for this entry: CCN(CC)CCCCNc1ncc2cc(-c3cc(OC)cc(OC)c3)c(NC(=O)NC(C)(C)C)nc2n1 + Cc1nc(Nc2ncc(C(=O)Nc3c(C)cccc3Cl)s2)cc(N2CCN(CCO)CC2)n1
A: 1.28
